Source: patent US20020049250A1

- TESTED_SYSTEM: PPAR-β (Homo sapiens)
- Construct: expressed in transfected cells; host or cells: HeLa cells
- Sequence (Q03181 whole entry, species assumed): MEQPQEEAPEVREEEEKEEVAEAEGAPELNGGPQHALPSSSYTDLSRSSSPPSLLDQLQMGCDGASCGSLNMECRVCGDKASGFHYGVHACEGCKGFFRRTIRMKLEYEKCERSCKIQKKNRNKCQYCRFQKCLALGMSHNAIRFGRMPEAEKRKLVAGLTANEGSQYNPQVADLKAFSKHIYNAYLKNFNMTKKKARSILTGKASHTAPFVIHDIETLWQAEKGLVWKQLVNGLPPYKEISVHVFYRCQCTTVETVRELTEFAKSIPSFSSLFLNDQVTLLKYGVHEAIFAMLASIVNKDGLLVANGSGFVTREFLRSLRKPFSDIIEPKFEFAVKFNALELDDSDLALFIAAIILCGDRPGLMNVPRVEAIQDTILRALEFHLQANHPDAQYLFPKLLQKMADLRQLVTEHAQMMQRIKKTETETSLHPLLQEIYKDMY
- ASSAY_COMMENT: PPAR-type receptor transactivation test (luciferase reporter), PPAR-β
- Type: cell-based
- CONDITIONS: HeLa, 24 h; read-out: % activation β
MEASUREMENT_TYPE: Emax (%)

CC(C)(C)c1ccc(C(=O)c2ccc3cc(C(=O)O)ccc3c2)cc1: 277

(P) CC1(C)CCc2cc(C(=O)c3ccc4cc(C(=O)O)ccc4c3)ccc2O1
(Q) CC1(C)CCOc2ccc(C(=O)c3ccc4cc(C(=O)O)ccc4c3)cc21
(R) COc1ccc(C(=O)c2ccc(C(=O)O)cc2)cc1C12CC3CC(CC(C3)C1)C2
Incoming: Would you mind ranking these molecules by ascending Emax? Provide your answer as the labels ordered per the instruction.
Outgoing: R, Q, P
